- Tested on: S. aureus ATCC 33591 (MRSA) pre-formed biofilms
- assay.procedure: Biofilm inhibitory assay (crystal violet), pre-formed biofilms
- Format: cell-based, Staphylococcus aureus
- measurement.context: Staphylococcus aureus; S. aureus ATCC 33591 (MRSA); pre-formed biofilms; read-out: Biofilm Inhibition IC50
property.label: IC50

Query: Return reported IC50 for target or system S. aureus ATCC 33591 (MRSA) pre-formed biofilms, item `CC(C)CCCc1c(O)ccc(C(=O)c2cc(Cl)c(Cl)[nH]2)c1O` .
Response: > 200 µM

----------
- test.target: adherence of S. aureus Newman to fibrinogen
- assay.procedure: Fibrinogen binding assay
- Format: cell-based, Staphylococcus aureus
- measurement.context: S. aureus Newman; read-out: Fibrinogen adherence Inhibition IC50
property.label: pIC50
Give bare numbers, as −log10 of the molar value.

Query: Return pIC50 (reported value) for this compound: O=C(O)c1cc[c]([Hg][OH])cc1 [p-HMB, p-hydroxymercuribenzoic acid, reference compound]
Response: 4.43

----------
- test.target: S. aureus sortase A (Staphylococcus aureus, UniProt Q2FV99)
- Construct: purchased AnaSpec AS-72229
- Sequence (Q2FV99 whole entry): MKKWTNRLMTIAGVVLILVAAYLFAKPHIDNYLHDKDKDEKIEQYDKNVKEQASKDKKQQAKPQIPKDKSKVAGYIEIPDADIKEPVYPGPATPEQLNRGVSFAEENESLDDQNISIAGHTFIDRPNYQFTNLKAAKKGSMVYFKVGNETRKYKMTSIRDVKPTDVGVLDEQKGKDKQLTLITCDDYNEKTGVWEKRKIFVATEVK
- assay.procedure: SrtA enzyme inhibition FRET assay, DABCYL-LPETG-EDANS substrate
- Type: biochemical
- measurement.context: Sortase A IC50, DABCYL-LPETG-EDANS substrate; 4 h
property.label: pIC50
Answers are plain numbers, as −log10 of the molar value.

Past entries and their recorded results:
{"molecule": "Cc1cc(O)c2c(c1)C(=O)c1c(c(O)cc(O)c1-c1c(O)cc(O)c3c1C(=O)c1cc(C)cc(O)c1C3=O)C2=O", "test.target": "S. aureus sortase A (Staphylococcus aureus, UniProt Q2FV99)", "pIC50": 4.62}
{"molecule": "O=C(/C=C/c1ccc(O)c(O)c1)O[C@@H]1C[C@](O)(C(=O)O)C[C@@H](O)[C@H]1O [Chlorogenic acid, reference compound]", "test.target": "S. aureus sortase A (Staphylococcus aureus, UniProt Q2FV99)", "pIC50": 4.06}

API: the following record is the query input.
Query: Return value of pIC50 for input `CC(C)CCCc1c(O)ccc(C(=O)c2cc(Cl)c(Cl)[nH]2)c1O` , no commentary.
Response: 4.33

----------
- test.target: S. aureus sortase A (Staphylococcus aureus)
- Construct: purchased AnaSpec AS-72229
- assay.procedure: SrtA enzyme inhibition FRET assay, 5-FAM/QXL 520 substrate
- Format: biochemical
- measurement.context: read-out: Sortase A IC50; 5-FAM/QXL substrate; 10 min
- Method: The enzymatic reactions were carried out in black, low-binding polystyrene 384 well plates (Greiner Bio-One). […] SrtA was pre-incubated in the reaction buffer with compounds for 1 h at room temperature prior to the addition of the FRET substrate. […] Raw fluorescence data were corrected for autofluorescence before computing percentage inhibition values. […]
property.label: IC50

Query: Write down IC50 measured for item CC1=CC2c3c(cc4oc5cc(C)cc(O)c5c4c3C)OC3(O)C(=O)c4oc5cc(C)cc(O)c5c4C(C)(C1)C23 (stereo not shown) [Compound N2450, Asticolorin B]
Response: > 200 µM

----------
Assign concentration giving ≥90% prevention of S. aureus Newman adherence to fibrinogen to each entry below.
- Tested on: adherence of S. aureus Newman to fibrinogen
- assay.procedure: Fibrinogen binding assay
- Format: cell-based, Staphylococcus aureus
- measurement.context: compared to untreated wildtype strain

{"compound": "Cc1cc(O)c2c(c1)C(=O)c1c(c(O)cc(O)c1-c1c(O)cc(O)c3c1C(=O)c1cc(C)cc(O)c1C3=O)C2=O", "reported.value": "46 µM"}
{"compound": "CC(C)CCCc1c(O)ccc(C(=O)c2cc(Cl)c(Cl)[nH]2)c1O", "reported.value": "17 µM"}
{"compound": "COc1cc(/C=C/C(=O)CC(=O)/C=C/c2ccc(O)c(OC)c2)ccc1O [Curcumin, reference compound]", "reported.value": "> 170 µM"}

Next up:
Query: Jot down concentration giving ≥90% prevention of S. aureus Newman adherence to fibrinogen (adherence of S. aureus Newman to fibrinogen) of O=C(O)c1cc[c]([Hg][OH])cc1 [p-HMB, p-hydroxymercuribenzoic acid, reference compound] .
Response: > 170 µM
